# credit: the supplement of paper PMC7125110

B1: glmS ribozyme (parent)
chain: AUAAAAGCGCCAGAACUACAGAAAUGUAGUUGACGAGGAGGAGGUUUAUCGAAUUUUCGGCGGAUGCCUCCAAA

# Variants of: B1
# test-details: self-cleavage kobs at 160 uM GlcN6P; higher = faster cleavage; RNA array
# setup-conditions: with glucosamine-6-phosphate
Variants at the floor of the assay were thinned out.
Known self-cleavage kobs at 160 uM GlcN6P of a selection of variants

mutant-designation	self-cleavage kobs at 160 uM GlcN6P
U47G U54G	0.000915 s⁻¹
G9A U30G G59C	< 1e-05 s⁻¹
U55C G62A	< 1e-05 s⁻¹
A6G U46C U57G	< 1e-05 s⁻¹
A12U A14U	0.000269 s⁻¹
A12C U31G A42C U69G	0.000164 s⁻¹
C10U G62U	< 1e-05 s⁻¹
G13U G44U	< 1e-05 s⁻¹
U46C C68U	7.49e-05 s⁻¹
A6U C34U	< 1e-05 s⁻¹
G37C G59A	< 1e-05 s⁻¹
